Overview of reported IC50 across a group of binders:
target: T1, TBD-11 (HC R98A); test: competition ELISA, Fab on captured TROP2
T1 construct: anti-TROP2 Fab, CDR3 HC alanine mutant
T1 sequence (VH, as listed by the source, chain 1 of 2): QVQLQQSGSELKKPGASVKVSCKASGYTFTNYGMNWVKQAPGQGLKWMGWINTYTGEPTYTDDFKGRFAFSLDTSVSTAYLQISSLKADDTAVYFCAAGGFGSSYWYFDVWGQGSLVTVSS
T1 sequence (VL, as listed by the source, chain 2 of 2): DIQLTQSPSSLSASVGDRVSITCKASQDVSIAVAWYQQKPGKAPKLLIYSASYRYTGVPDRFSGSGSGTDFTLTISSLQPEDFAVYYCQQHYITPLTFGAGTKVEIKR
Please append the unit to your numeric answer.

VDFCYMYKWPVCYP (mask peptide for the TROP2 Fab) [Peptide-48]	31.3 µM
VEICKQWFYTVCLS (mask peptide for the TROP2 Fab) [Peptide-58]	1.13 µM
VDFCYQYGWPICSRV (mask peptide for the TROP2 Fab) [Peptide-56]	21 µM
VDFCALYNWPVCAI (mask peptide for the TROP2 Fab) [Peptide-59]	7.55 µM
VDFCAIYSWPICKI (mask peptide for the TROP2 Fab) [Peptide-50]	1.97 µM

For VDFCALYHWPICYQ (mask peptide for the TROP2 Fab) [Peptide-43] , what is its reported IC50?
0.87 µM

Report IC50 for VEFCAIYSWPICKI (mask peptide for the TROP2 Fab) [Peptide-46] please.
22.3 µM

Requested read-out: IC50. Entry: VDFCNLYHWPICAI (mask peptide for the TROP2 Fab) [Peptide-60]
2.56 µM

Can you look up the measured IC50 of VDFCYQYGWPICSRLY (mask peptide for the TROP2 Fab) [Peptide-47] for me?
46.2 µM

Give the measured IC50 of VDFCYKYNWPICSR (mask peptide for the TROP2 Fab) [Peptide-55] .
14 µM
